Below is a list of entries, each paired with its recorded relative viability value.
System: NCI-H1993
Assay: relative viability (nuclei count vs DMSO), 5 days (fraction); higher = more cells survive
Conditions: first compound 0.4 µM
Write no unit; give the number alone.

Study these solved cases before continuing.
COc1cc(N2CCC(C(N)=O)CC2)ccc1Nc1nc(N)c(Cl)c(Nc2ccccc2S(=O)(=O)C(C)C)n1 [HG-5-88-01] + CC1(C)CCC(c2ccc(Cl)cc2)=C(CN2CCN(c3ccc(C(=O)NS(=O)(=O)c4ccc(N[C@H](CCN5CCOCC5)CSc5ccccc5)c(S(=O)(=O)C(F)(F)F)c4)cc3)CC2)C1 [Navitoclax] (partner 0.5 µM)
0.911
Clc1ccc(Nc2nnc(Cc3ccncc3)c3ccccc23)cc1 [Vatalanib] + Nc1ncn([C@H]2C[C@H](O)[C@@H](CO)O2)c(=O)n1 [Decitabine] (partner 2 µM)
0.541
COc1cc(N2CCC(C(N)=O)CC2)ccc1Nc1nc(N)c(Cl)c(Nc2ccccc2S(=O)(=O)C(C)C)n1 [HG-5-88-01] + NC(=O)Nc1cc(-c2cccc(F)c2)sc1C(=O)N[C@H]1CCCNC1 [AZD7762] (partner 0.2 µM)
0.77
C[C@@H]1CN(CC(=O)Nc2ccc3c(c2)Cc2cccc(-c4cc(=O)cc(N5CCOCC5)o4)c2S3)C[C@H](C)O1 + C[C@@H](Oc1cc(-c2cnn(C3CCNCC3)c2)cnc1N)c1c(Cl)ccc(F)c1Cl [Crizotinib] (partner 1 µM)
0.661

With those in mind, consider the next compound.
*Q* Param readout = relative viability; param system = NCI-H1993; param query = Clc1ccc(Nc2nnc(Cc3ccncc3)c3ccccc23)cc1 [Vatalanib] + O=C(CCCCCCC(=O)Nc1ccccc1)NO [Vorinostat] (partner 1 µM) ; response: value
*A* 0.806

---

System: NCI-H23
Test: relative viability (nuclei count vs DMSO), 5 days (fraction); higher = more cells survive
Details: first compound 0.04 µM
ASSAY ENDPOINT: relative viability
No unit in the answer, please; the number alone is enough.

C[C@@H]1CN(CC(=O)Nc2ccc3c(c2)Cc2cccc(-c4cc(=O)cc(N5CCOCC5)o4)c2S3)C[C@H](C)O1 + Nc1nc2[nH]cc(CCc3ccc(C(=O)N[C@@H](CCC(=O)O)C(=O)O)cc3)c2c(=O)[nH]1 [Pemetrexed] (partner 0.2 µM)
0.685

Here's the next entry for you.
*Q* relative viability lookup needed for COc1cc(N2CCC(C(N)=O)CC2)ccc1Nc1nc(N)c(Cl)c(Nc2ccccc2S(=O)(=O)C(C)C)n1 [HG-5-88-01] + CC(=O)c1c(C)c2cnc(Nc3ccc(N4CCNCC4)cn3)nc2n(C2CCCC2)c1=O [Palbociclib] (partner 0.5 µM) , thanks.
*A* 0.507

---

Test system: HCC-44
Test: relative viability (nuclei count vs DMSO), 5 days (fraction); higher = more cells survive
Conditions: first compound 4 µM
ASSAY ENDPOINT: relative viability
Keep the answer to the number alone.

Reference set, count: 5
Clc1ccc(Nc2nnc(Cc3ccncc3)c3ccccc23)cc1 [Vatalanib] + CC(=O)Nc1cccc(-n2c(=O)n(C3CC3)c(=O)c3c(Nc4ccc(I)cc4F)n(C)c(=O)c(C)c32)c1 [Trametinib] (partner 0.02 µM)
1.02
COc1cc(N2CCC(C(N)=O)CC2)ccc1Nc1nc(N)c(Cl)c(Nc2ccccc2S(=O)(=O)C(C)C)n1 [HG-5-88-01] + Nc1nc2[nH]cc(CCc3ccc(C(=O)N[C@@H](CCC(=O)O)C(=O)O)cc3)c2c(=O)[nH]1 [Pemetrexed] (partner 0.2 µM)
0.69
Clc1ccc(Nc2nnc(Cc3ccncc3)c3ccccc23)cc1 [Vatalanib] + O=C(CCCCCCC(=O)Nc1ccccc1)NO [Vorinostat] (partner 1 µM)
1.07
C[C@@H]1CN(CC(=O)Nc2ccc3c(c2)Cc2cccc(-c4cc(=O)cc(N5CCOCC5)o4)c2S3)C[C@H](C)O1 + Nc1ncn([C@H]2C[C@H](O)[C@@H](CO)O2)c(=O)n1 [Decitabine] (partner 2 µM)
0.953
C[C@@H]1CN(CC(=O)Nc2ccc3c(c2)Cc2cccc(-c4cc(=O)cc(N5CCOCC5)o4)c2S3)C[C@H](C)O1 + CC(=O)Nc1cccc(-n2c(=O)n(C3CC3)c(=O)c3c(Nc4ccc(I)cc4F)n(C)c(=O)c(C)c32)c1 [Trametinib] (partner 0.02 µM)
1.03

*Q* Entry COc1cc(N2CCC(C(N)=O)CC2)ccc1Nc1nc(N)c(Cl)c(Nc2ccccc2S(=O)(=O)C(C)C)n1 [HG-5-88-01] + NC(=O)Nc1cc(-c2cccc(F)c2)sc1C(=O)N[C@H]1CCCNC1 [AZD7762] (partner 0.2 µM) has what relative viability?
*A* 0.957

---

Consider the following compounds and their measured relative viability readings.
Test system: NCI-H441
Experiment: relative viability (nuclei count vs DMSO), 5 days (fraction); higher = more cells survive
Details: first compound 0.03162 µM
// response body must contain only the number

CC(C)Oc1cc(Nc2nc(N[C@@H](C)c3ccc(F)cn3)ncc2Cl)n[nH]1 [AZ23] + Nc1ncn([C@H]2C[C@H](O)[C@@H](CO)O2)c(=O)n1 [Decitabine] (partner 2 µM)
0.248
CC(C)Oc1cc(Nc2nc(N[C@@H](C)c3ccc(F)cn3)ncc2Cl)n[nH]1 [AZ23] + O=C(CCCCCCC(=O)Nc1ccccc1)NO [Vorinostat] (partner 1 µM)
0.842
CC(C)Oc1cc(Nc2nc(N[C@@H](C)c3ccc(F)cn3)ncc2Cl)n[nH]1 [AZ23] + Cc1nc(Nc2ncc(C(=O)Nc3c(C)cccc3Cl)s2)cc(N2CCN(CCO)CC2)n1 [Dasatinib] (partner 0.075 µM)
0.745
CC(C)Oc1cc(Nc2nc(N[C@@H](C)c3ccc(F)cn3)ncc2Cl)n[nH]1 [AZ23] + CS(=O)(=O)N1CCN(Cc2cc3nc(-c4cccc5[nH]ncc45)nc(N4CCOCC4)c3s2)CC1 [Pictilisib] (partner 1 µM)
0.601

Turning now to a further compound:
*Q* So what does the record say about relative viability for CC(C)Oc1cc(Nc2nc(N[C@@H](C)c3ccc(F)cn3)ncc2Cl)n[nH]1 [AZ23] + Nc1nc2[nH]cc(CCc3ccc(C(=O)N[C@@H](CCC(=O)O)C(=O)O)cc3)c2c(=O)[nH]1 [Pemetrexed] (partner 0.2 µM) ?
*A* 0.242

---

System: PC-3 [JPC-3]
Experiment: relative viability (nuclei count vs DMSO), 5 days (fraction); higher = more cells survive
Conditions: first compound 1.265 µM
Define the label as yes (1) when relative viability is strictly less than 0.8 and as no (0) in all remaining cases.

Clc1ccc(Nc2nnc(Cc3ccncc3)c3ccccc23)cc1 [Vatalanib] + CC(C)C[C@H](NC(=O)[C@H](Cc1ccccc1)NC(=O)c1cnccn1)B(O)O [Bortezomib] (partner 0.002 µM)
no (0)
Clc1ccc(Nc2nnc(Cc3ccncc3)c3ccccc23)cc1 [Vatalanib] + CC(=O)Nc1cccc(-n2c(=O)n(C3CC3)c(=O)c3c(Nc4ccc(I)cc4F)n(C)c(=O)c(C)c32)c1 [Trametinib] (partner 0.02 µM)
yes (1)
COc1cc(N2CCC(C(N)=O)CC2)ccc1Nc1nc(N)c(Cl)c(Nc2ccccc2S(=O)(=O)C(C)C)n1 [HG-5-88-01] + CC1(C)CCC(c2ccc(Cl)cc2)=C(CN2CCN(c3ccc(C(=O)NS(=O)(=O)c4ccc(N[C@H](CCN5CCOCC5)CSc5ccccc5)c(S(=O)(=O)C(F)(F)F)c4)cc3)CC2)C1 [Navitoclax] (partner 0.5 µM)
yes (1)

*Q* Hi there! Is relative viability for COc1cc(N2CCC(C(N)=O)CC2)ccc1Nc1nc(N)c(Cl)c(Nc2ccccc2S(=O)(=O)C(C)C)n1 [HG-5-88-01] + O=C(c1cc(Cc2n[nH]c(=O)c3ccccc23)ccc1F)N1CCN(C(=O)C2CC2)CC1 [Olaparib] (partner 8 µM) below 0.8, do you know?
*A* yes (1)

*Q* Consider COc1cc(N2CCC(C(N)=O)CC2)ccc1Nc1nc(N)c(Cl)c(Nc2ccccc2S(=O)(=O)C(C)C)n1 [HG-5-88-01] + Cc1nc(NC(=O)N2CCC[C@H]2C(N)=O)sc1-c1ccnc(C(C)(C)C(F)(F)F)c1 [Alpelisib] (partner 2 µM) . Does its relative viability lie strictly below 0.8?
*A* no (0)

*Q* Say whether its relative viability is strictly beneath 0.8. Entry: COc1cc(N2CCC(C(N)=O)CC2)ccc1Nc1nc(N)c(Cl)c(Nc2ccccc2S(=O)(=O)C(C)C)n1 [HG-5-88-01] + Nc1ncn([C@H]2C[C@H](O)[C@@H](CO)O2)c(=O)n1 [Decitabine] (partner 2 µM)
*A* yes (1)

---

Test system: NCI-H1703
Assay: relative viability (nuclei count vs DMSO), 5 days (fraction); higher = more cells survive
Settings: first compound 0.04 µM
// values below are reported relative viability
Field format: numeric only.

Clc1ccc(Nc2nnc(Cc3ccncc3)c3ccccc23)cc1 [Vatalanib] + C[C@@H](Oc1cc(-c2cnn(C3CCNCC3)c2)cnc1N)c1c(Cl)ccc(F)c1Cl [Crizotinib] (partner 1 µM)
0.669

# evaluate next
*Q* Reported relative viability for COc1cc(N2CCC(C(N)=O)CC2)ccc1Nc1nc(N)c(Cl)c(Nc2ccccc2S(=O)(=O)C(C)C)n1 [HG-5-88-01] + CS(=O)(=O)N1CCN(Cc2cc3nc(-c4cccc5[nH]ncc45)nc(N4CCOCC4)c3s2)CC1 [Pictilisib] (partner 1 µM) : what is it?
*A* 0.217
